molecular target: Calcium-dependent protein kinase 1 (Plasmodium falciparum (isolate 3D7)) (UniProt P62344); assay: PfCDPK1 kinase inhibitors, biochemical, TCAMS library (AID 1159585); settings: recombinant PfCDPK1, Kinase-Glo ATP depletion luminescence;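 further: inhibitors leave more ATP so luminescence rises with inhibition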
Sequence (P62344 whole entry, looked up): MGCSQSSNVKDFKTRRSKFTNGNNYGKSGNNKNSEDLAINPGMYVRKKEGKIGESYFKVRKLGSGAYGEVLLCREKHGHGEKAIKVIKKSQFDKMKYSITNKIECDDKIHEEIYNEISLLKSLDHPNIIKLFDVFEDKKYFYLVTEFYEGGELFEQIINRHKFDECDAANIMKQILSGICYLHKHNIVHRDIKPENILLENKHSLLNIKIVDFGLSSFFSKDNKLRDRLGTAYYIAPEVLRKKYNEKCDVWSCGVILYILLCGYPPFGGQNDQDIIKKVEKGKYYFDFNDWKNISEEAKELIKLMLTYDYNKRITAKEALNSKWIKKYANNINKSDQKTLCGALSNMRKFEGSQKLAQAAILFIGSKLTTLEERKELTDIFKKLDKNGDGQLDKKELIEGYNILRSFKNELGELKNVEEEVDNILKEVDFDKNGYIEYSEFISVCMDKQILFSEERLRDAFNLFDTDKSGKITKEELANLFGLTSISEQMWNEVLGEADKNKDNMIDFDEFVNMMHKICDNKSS
Measured potencies and affinities stand elsewhere. Activity calls are given as the source filed them. Cut-off not given; nearly all actives show IC50 up to about 0.98 µM.
recordedMetric: outcome

                                    molecule  recordedmetric  endpointvalue
 0  COc1ccc(NC(=O)Nc2cccc(-c3cccc(-c4nc5c(C)cccc5[nH]4)c3)c2)cc1         outcome       inactive
 1  CN(CCCCNC(=O)c1cc2ccccc2[nH]1)C1CC2(CCN(C(=O)OC(C)(C)C)CC2)c2ccccc21 (stereo not given)         outcome       inactive
 2  Cc1ncccc1C(=O)Nc1ccc(-c2cccc(-c3nc4c(C)cccc4[nH]3)c2)cc1         outcome       inactive
 3  N#Cc1ccc(CN2CCC(Oc3ccc(NC(=O)c4ccsc4)cc3Cl)C2)cc1 (stereo not given)         outcome       inactive
 4  Cc1cccc(CCCNC(=O)CN(c2cccc(C(F)(F)F)c2)S(=O)(=O)c2ccc(C(F)(F)F)cc2)c1         outcome       inactive
 5  O=C(Nc1cccc(C(F)(F)F)c1)c1ccc(S(=O)(=O)NC2CCN(CC3CCCCC3)C2)cc1 (stereo not given)         outcome       inactive
 6  CC(C)(C)c1ccc2nc(-c3ccc(/C=C/C(=O)NCc4cccc(C(F)(F)F)c4)cc3)[nH]c2c1         outcome       inactive
 7  CN1CCC(Oc2ccc(NC(=O)c3ccc4c(=O)n(Cc5ccccc5)cnc4c3)cc2Cl)CC1         outcome       inactive
 8  CN1CCN(Cc2cccc(-c3ccc4c(Nc5ccc(Oc6ccccc6)cc5)ccnc4c3)c2)CC1         outcome       inactive
 9  CC(C)CCN(Cc1cncn1Cc1cccc(C(F)(F)F)c1)C(=O)c1ccccc1C#N         outcome       inactive
10  CCOC(=O)CCCc1cc(NC2CCN(C)CC2)nc(Nc2ccc(OC)cc2)n1         outcome       inactive
11              Cc1nc(N)nc(N)c1Oc1cccc(Cl)c1         outcome       inactive
12  CN(C)c1ccc(-c2csc(C(=O)NC3CCCCN(Cc4ccc(C(C)(C)C)cc4)C3)c2)cc1 (stereo not given)         outcome       inactive
13  Cc1ccc(S(=O)(=O)n2cc(-c3ccnc(N)c3)c3cc(Br)cnc32)cc1         outcome       inactive
14          Cc1cccc(C)c1CNc1ccnc2cc(Br)ccc12         outcome       inactive
15  O=C(/C=C/c1ccc(Cl)c(Cl)c1)NCCCCN1CCCN(C(=O)Nc2ccc(F)c(Cl)c2)CC1         outcome       inactive
16            Cc1cc(NN=Cc2ccccc2F)c2ccccc2n1         outcome       inactive
17  Cc1cc(Cl)c(S(=O)(=O)N(C)c2ccccc2)cc1OCC(=O)NC1CCCCC1         outcome       inactive
18      CC1(C)N=C(N)N=C(N)N1c1ccc(Cl)c(Cl)c1         outcome       inactive
19  O=C(Nc1ccc(C(F)(F)F)cc1)Nc1cccc([N+](=O)[O-])c1         outcome       inactive

* * *

assay: antimalarial activity against Dd2 strain (AID 2302);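 further: 0% = DMSO untreated growth and 100% = chloroquine plus artemisinin killed control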; settings: P. falciparum Dd2 in RBCs, LDH growth readout, 72 h; at 2 µM; stronger effect = higher value

compound	growth inhibition [%]
CCOc1c(Br)cc(C)cc1CNCCCNc1nc2ccccc2[nH]1	5
O=C(NCCN1CCCCC1)c1ccc(CNC(=O)c2ccc(O)c(-c3ccc(Cl)c(Cl)c3)c2)cc1	68
c1cncc(CCNCc2ccc(-c3ccc(-c4nc5ccccc5[nH]4)s3)cc2)c1	99
Cc1cc(N2CCCC2)nc(Nc2ccc(NC(=O)Cc3ccccc3)cc2)n1	72
C[C@@H]1CN(C(c2cccc(O)c2)c2cccc(C(=O)N(C)c3cccc(F)c3)c2)[C@@H](C)CN1C(c1cccc(O)c1)c1cccc(C(=O)N(C)c2cccc(F)c2)c1 (some centres undefined)	85
CC1(C)N=C(N)N=C(N)N1OCc1cccc2c1ccc1ccccc12	97
CCCCCCCCCc1c(C)[nH]c2ccccc2c1=O	96
Cc1ncsc1CCN1C(=O)CC2(C1=O)C(=O)N(Cc1ccccc1)c1ccc(Cl)cc12 (centres undefined)	46
COc1cc2ccccc2cc1CNCCCCCCNCc1cc2ccccc2cc1OC	24
CCCc1ccc(C(=O)N2[C@@H](c3nccs3)[C@@H](C(N)=O)C[C@@]2(CC(C)C)C(=O)O)cc1	80
CCOc1c(CNCCCNc2cc(=O)c3ccccc3[nH]2)cc(I)cc1C(C)(C)C	89
O=c1cc(NCCCNCc2cn(S(=O)(=O)c3ccccc3)c3ccccc23)[nH]c2ccccc12	29
O=C(Nc1ccc(-c2ccccc2)cc1)Nc1cccc(Cn2ncc(N3CCNCC3)c(Cl)c2=O)c1	59
COC(=O)c1ccc2nc(-c3cc(OC)c(O)c(C(=O)NC4CCN(Cc5ccccc5)CC4)c3)[nH]c2c1	-2
c1ccc(C2CCC(N3CCC(N4CCCC4)CC3)CC2)cc1 (centres undefined)	46
COc1ccc2nccc([C@@H](O)CN3CCC(NC(=O)C(=Cc4ccc(Cl)cc4Cl)c4ccc(-c5ccccc5)cc4)CC3)c2c1	98
O=C(NCCCN1CCC(N2CCCCC2)CC1)c1ccc(N2CCOc3ccccc32)s1	12
COc1ccc(NC(=O)Nc2nc3ccccc3s2)cc1N1CCN(C)CC1	22
O=C(/C=C/c1ccc(C(F)(F)F)cc1)NCCCCCN1CCCN(C(=O)Nc2ccc(Cl)c(C(F)(F)F)c2)CC1	31

* * *

target: Protein kinase 7 (PK7), Plasmodium falciparum 3D7 (PF3D7_0213400) (UniProt Q7YTF7); test: inhibition of Plasmodium PK7 catalytic activity – biochemical, TCAMS antimalarial set, Kinase-Glo luminescence (AID 1159587); conditions: recombinant PfPK7, Kinase-Glo ATP depletion luminescence
The source made the active and inactive calls. How the calls were made is not given here.
recordedMetric: outcome

In [3]: df
Out[3]:
                                    compound                                testsystem  endpointvalue
 0  O=C(Nc1ccc(OC2CCN(Cc3ccccc3)C2)c(Cl)c1)c1ccsc1 (centres undefined)  Protein kinase 7 (PK7), Plasmodium falciparum 3D7 (PF3D7_0213400) (UniProt Q7YTF7)       inactive
 1  Cc1ccc2nc3c(cc(C(=O)NCCc4ccccc4)c(=N)n3CCCOC(C)C)c(=O)n2c1  Protein kinase 7 (PK7), Plasmodium falciparum 3D7 (PF3D7_0213400) (UniProt Q7YTF7)       inactive
 2  O=C(Nc1ccccc1)Nc1cccc(-c2cccc(-c3nc4ccc(F)cc4[nH]3)c2)c1  Protein kinase 7 (PK7), Plasmodium falciparum 3D7 (PF3D7_0213400) (UniProt Q7YTF7)       inactive
 3  O[C@@H](c1cccc(OCc2ccccc2)c1)[C@@H]1CN(CCc2ccccc2)CC[C@@]1(O)c1ccccc1  Protein kinase 7 (PK7), Plasmodium falciparum 3D7 (PF3D7_0213400) (UniProt Q7YTF7)       inactive
 4  COc1ccc(-c2cnc(N)c(-c3ccc(O)c(OC)c3)c2)cn1  Protein kinase 7 (PK7), Plasmodium falciparum 3D7 (PF3D7_0213400) (UniProt Q7YTF7)       inactive
 5  O=C(Nc1nc2cc(S(=O)(=O)NCc3ccc(Cl)c(Cl)c3)ccc2n1CCCN1CCCC1)c1ccc(Cl)cc1  Protein kinase 7 (PK7), Plasmodium falciparum 3D7 (PF3D7_0213400) (UniProt Q7YTF7)       inactive
 6  Cc1ccccc1CCNC(=O)c1ccc(N2CCN(c3ccncc3)CC2)nc1  Protein kinase 7 (PK7), Plasmodium falciparum 3D7 (PF3D7_0213400) (UniProt Q7YTF7)       inactive
 7  Cc1nc2c(c(O)c1Cl)-c1ccc(Oc3cccc(C(F)(F)F)c3)cc1C2=O  Protein kinase 7 (PK7), Plasmodium falciparum 3D7 (PF3D7_0213400) (UniProt Q7YTF7)       inactive
 8  CCCn1c(=N)c(C(=O)NCCc2ccccc2)cc2c(=O)n3cccc(C)c3nc21  Protein kinase 7 (PK7), Plasmodium falciparum 3D7 (PF3D7_0213400) (UniProt Q7YTF7)       inactive
 9  O=C(c1ccc([N+](=O)[O-])o1)N1CCC(c2cn(Cc3cccc(F)c3)c3ccccc23)CC1  Protein kinase 7 (PK7), Plasmodium falciparum 3D7 (PF3D7_0213400) (UniProt Q7YTF7)       inactive
10  O=C(NCC1CCC(C(=O)NCCc2ccc(Cl)c(Cl)c2)CC1)c1ccc(O)c(-c2ccc(Cl)c(Cl)c2)c1 (centres undefined)  Protein kinase 7 (PK7), Plasmodium falciparum 3D7 (PF3D7_0213400) (UniProt Q7YTF7)       inactive
11  O=C(NC(Nc1ccc([N+](=O)[O-])cc1)C(Cl)(Cl)Cl)c1ccc(Cl)cc1 (centres undefined)  Protein kinase 7 (PK7), Plasmodium falciparum 3D7 (PF3D7_0213400) (UniProt Q7YTF7)       inactive
12  CCNC(=O)Nc1cccc(-c2cccc(-c3nc4c(C)cccc4[nH]3)c2)c1  Protein kinase 7 (PK7), Plasmodium falciparum 3D7 (PF3D7_0213400) (UniProt Q7YTF7)       inactive
13  CN(C)CC(=O)Nc1cccc(Nc2nccc(NCC(O)c3ccccc3)n2)c1 (centres undefined)  Protein kinase 7 (PK7), Plasmodium falciparum 3D7 (PF3D7_0213400) (UniProt Q7YTF7)       inactive
14  Cc1[nH]nc2cc(Nc3nccc(Nc4ccc(Oc5ccccc5)cc4)n3)ccc12  Protein kinase 7 (PK7), Plasmodium falciparum 3D7 (PF3D7_0213400) (UniProt Q7YTF7)       inactive
15  CCCCc1ccc(CCNCCCCCCNCCc2ccc(O)c(O)c2)cc1  Protein kinase 7 (PK7), Plasmodium falciparum 3D7 (PF3D7_0213400) (UniProt Q7YTF7)       inactive
16  FC(F)(F)c1ccc2nc(-c3ccc(-c4ccc(CNCc5cnn(-c6ccccc6)n5)cc4)cc3)[nH]c2c1  Protein kinase 7 (PK7), Plasmodium falciparum 3D7 (PF3D7_0213400) (UniProt Q7YTF7)       inactive
17  Cc1cc(-c2ccnc(Nc3cccc(C#N)c3)n2)cc(C)c1O  Protein kinase 7 (PK7), Plasmodium falciparum 3D7 (PF3D7_0213400) (UniProt Q7YTF7)       inactive
18  Cc1cc(N[C@@H](Cc2ccccc2)C(=O)NCc2cccc(F)c2)nc(Nc2ccccc2)n1  Protein kinase 7 (PK7), Plasmodium falciparum 3D7 (PF3D7_0213400) (UniProt Q7YTF7)       inactive
